tested on: Streptococcus pyogenes L49; assay: MIC by microbroth dilution; assay type: cell-based; details: 0,01% BSA, 10^4 CFU/ml, 18-24 h, Todd Hewitt broth
Property label: MIC of the compounds (mg/L)

Answered cases to consult:
- Molecule: "CNC(=O)CC1NC(=O)c2csc(n2)-c2ccc(-c3nc(C4=NC(C(=O)N(C)CCN5CCN(CCO)CC5)CO4)cs3)nc2-c2csc(n2)-c2csc(n2)C(C(O)c2ccccc2)NC(=O)CNC(=O)c2nc(sc2COC)C(C(C)C)NC(=O)c2nc1sc2C (mixture of isomers) [Compound 19]"
  Property label: "MIC of the compounds"
  Unit tag: "mg/L"
  Recorded result: 1
- Molecule: "CNC(=O)CC1NC(=O)c2csc(n2)-c2ccc(-c3nc(C4=NC(C(=O)NC(C)C(=O)N(C)CCN(C)C)CO4)cs3)nc2-c2csc(n2)-c2csc(n2)C(C(O)c2ccccc2)NC(=O)CNC(=O)c2nc(sc2COC)C(C(C)C)NC(=O)c2nc1sc2C (mixture of isomers)"
  Property label: "MIC of the compounds"
  Unit tag: "mg/L"
  Recorded result: 4
- Molecule: "CNC(=O)CC1NC(=O)c2csc(n2)-c2ccc(-c3nc(C4=NC(C(=O)N(C)CC(=O)N(C)CCN(C)C)CO4)cs3)nc2-c2csc(n2)-c2csc(n2)C(C(O)c2ccccc2)NC(=O)CNC(=O)c2nc(sc2COC)C(C(C)C)NC(=O)c2nc1sc2C (mixture of isomers)"
  Property label: "MIC of the compounds"
  Unit tag: "mg/L"
  Recorded result: 2
- Molecule: "CNC(=O)CC1NC(=O)c2csc(n2)-c2ccc(-c3nc(C4=NC(C(=O)N(C)CCN(C)C)CO4)cs3)nc2-c2csc(n2)-c2csc(n2)C(C(O)c2ccccc2)NC(=O)CNC(=O)c2nc(sc2COC)C(C(C)C)NC(=O)c2nc1sc2C (mixture of isomers) [Compound 4]"
  Property label: "MIC of the compounds"
  Unit tag: "mg/L"
  Recorded result: 0.5
- Molecule: "CNC(=O)CC1NC(=O)c2csc(n2)-c2ccc(-c3nc(C4=NC(C(=O)N5CCN(C)CC5)CO4)cs3)nc2-c2csc(n2)-c2csc(n2)C(C(O)c2ccccc2)NC(=O)CNC(=O)c2nc(sc2COC)C(C(C)C)NC(=O)c2nc1sc2C (mixture of isomers)"
  Property label: "MIC of the compounds"
  Unit tag: "mg/L"
  Recorded result: 4

I = CCN(CC)CCNC(=O)C1COC(c2csc(-c3ccc4c(n3)-c3csc(n3)-c3csc(n3)C(C(O)c3ccccc3)NC(=O)CNC(=O)c3nc(sc3COC)C(C(C)C)NC(=O)c3nc(sc3C)C(CC(=O)NC)NC(=O)c3csc-4n3)n2)=N1 (mixture of isomers)
II = CNC(=O)CC1NC(=O)c2csc(n2)-c2ccc(-c3nc(C4=NC(C(=O)NCCN(C(C)C)C(C)C)CO4)cs3)nc2-c2csc(n2)-c2csc(n2)C(C(O)c2ccccc2)NC(=O)CNC(=O)c2nc(sc2COC)C(C(C)C)NC(=O)c2nc1sc2C (mixture of isomers)
Smaller MIC of the compounds value? Options are I and II Lab log: write the label of the selected item as the result. I

Cited source for all entries: patent US5891869A
